# Test System: Follistatin (Homo sapiens) (UniProt P19883)
# Sequence (P19883 whole entry, looked up): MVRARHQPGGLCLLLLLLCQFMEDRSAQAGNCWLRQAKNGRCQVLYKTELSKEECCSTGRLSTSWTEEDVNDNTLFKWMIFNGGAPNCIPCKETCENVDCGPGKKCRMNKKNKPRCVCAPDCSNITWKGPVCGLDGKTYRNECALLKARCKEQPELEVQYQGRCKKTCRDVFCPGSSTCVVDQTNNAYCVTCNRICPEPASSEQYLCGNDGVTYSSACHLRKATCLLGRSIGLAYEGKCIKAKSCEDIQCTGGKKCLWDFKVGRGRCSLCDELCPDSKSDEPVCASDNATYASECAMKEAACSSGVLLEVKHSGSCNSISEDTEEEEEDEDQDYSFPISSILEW
# Method Summary: follistatin binders on small-molecule microarrays, primary screen, biochemical, small-molecule microarray, 635/667 nm fluorescence (AID 1132)
# Conditions: FST binding, 635 nm fluorescence, higher = more signal
Binning rule for recorded composite z-score: band 1 (below 0.7), band 2 (0.7 to below 1), band 3 (1 or more)

Sort into band: `O=C(N1CCCCC1)[C@@]1(Cc2ccccc2)COC(c2ccc(OCCCO)cc2)=N1`
band 1

Sort into band: `CCOC(=O)C[C@H]1[C@H](OC(=O)Cc2ccc3c(c2)OCO3)[C@@H](NC(=O)Cc2ccc(OC)cc2)c2cc(OCCCO)ccc2N1C(=O)c1ccccc1`
band 1

Sort into band: COc1ccc(NN2C(C(O)c3ccccn3)C=CC3C(=O)N(C4CCCCC4)C(=O)C32)cc1 (centres undefined)
band 2

Sort into band: C[C@H]1C2=C3C(CC[C@H]4C(OCc5ccc(F)cc5C(F)(F)F)OC[C@](C)([C@@H]34)N(C(=O)OC(C)(C)C)C2)C2COC(=O)OCC21 (some centres undefined)
band 2

Sort into band: `COCCOC(=O)N1C(=O)[C@@]2(c3cc(C#CC4(O)CCCCCC4)ccc31)[C@H](C(N)=O)[C@H]1C(=O)O[C@H](c3ccccc3)[C@H](c3ccccc3)N1[C@@H]2c1ccccc1OCCO`
band 3

Sort into band: `COCCOC(=O)N1C(=O)[C@@]2(c3cc(C#CC4(O)CCCCCC4)ccc31)[C@H](C(N)=O)[C@H]1C(=O)O[C@H](c3ccccc3)[C@H](c3ccccc3)N1[C@@H]2c1ccc(O)cc1`
band 3

Sort into band: `CCOC(=O)C1=CC[C@@H](c2ccccc2)N(S(=O)(=O)c2ccc(C)cc2)C1`
band 2

Sort into band: `CCC[C@@H]1C[C@@]1(CCC)[C@@H](NP(=O)(c1ccccc1)c1ccccc1)c1ccc(Cl)cc1`
band 1

Sort into band: `CC(=O)N1Cc2ccccc2C[C@]2(N=C(c3ccc(OCCCO)cc3)O[C@@H]2c2ccccc2)C1=O`
band 2

Sort into band: `CN(C)CCCNC(=O)[C@@]1(c2ccc([N+](=O)[O-])cc2)CC(=O)N(CC23CC4CC(CC(C4)C2)C3)[C@@H]1c1ccc(CO)cc1`
band 3

Sort into band: `COc1cc2c(cc1OC)CN(C(=O)[C@@H]1[C@H]3C(=O)O[C@H](c4ccccc4)[C@H](c4ccccc4)N3[C@H](c3ccccc3OCCO)[C@@]13C(=O)Nc1ccc(C#CC4(O)CCCCCC4)cc13)CC2`
band 2

Sort into band: CC[C@@H]1[C@H]2C3C(=O)N(CC)C(=O)C3CC(=O)[C@H]2[C@H](c2ccc(C)cc2)N1S(=O)(=O)c1ccc(C)cc1 (some centres undefined)
band 1

Sort into band: `C=C(COC)/C(=C/C[C@@H](OC(=O)c1ccncc1)c1cccc(OCCO)c1)c1cnc2ccccc2c1`
band 3
